Biological target: T1, human CD276 protein (human, UniProt Q5ZPR3 29-534)
T1 construct: whole, on cells; for SKOV3 and the other cancer lines the protein is the cells' own; also called B7-H3; B7H3
T1 sequence (looked up): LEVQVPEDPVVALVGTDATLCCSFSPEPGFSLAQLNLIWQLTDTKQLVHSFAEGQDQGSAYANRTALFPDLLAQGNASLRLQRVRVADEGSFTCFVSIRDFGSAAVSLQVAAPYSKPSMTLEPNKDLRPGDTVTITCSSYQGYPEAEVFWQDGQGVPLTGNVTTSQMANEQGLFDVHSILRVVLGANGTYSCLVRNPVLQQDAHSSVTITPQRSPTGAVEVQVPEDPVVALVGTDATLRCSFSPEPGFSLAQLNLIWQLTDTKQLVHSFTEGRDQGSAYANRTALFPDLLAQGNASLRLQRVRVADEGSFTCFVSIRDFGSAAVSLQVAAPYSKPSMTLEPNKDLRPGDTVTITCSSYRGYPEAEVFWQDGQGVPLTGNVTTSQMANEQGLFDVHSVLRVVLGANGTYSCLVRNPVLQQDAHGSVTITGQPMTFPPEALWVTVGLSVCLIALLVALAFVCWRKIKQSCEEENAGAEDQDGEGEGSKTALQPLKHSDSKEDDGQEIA
Assay: FACS titration on SKOV3 cells (MFI against Conc. (nM)); unit taken from the concentration axis
Each entry below carries its reported EC50.
Dear colleague, please return just the value in nM, with no unit written.

[[record]]
binder = "mVH5-mVL4-10 (antibody, V domains shown) VH: EVQLVESGGGLVQPGGSLRLSCATSGFTLSDYYMSWVRQPPGKAPEWLGFMRNKANAYTTEYSASVRGRFTISRDTSQSIIYLQMNTLRAEDGATYYCVRDREGRPFAYWGQGTLVTVSA VL: DIVMTQSPSSLTVTAGEKVTMSCKSSQSLLNAINQKNFLTWYQQKPGQPPKLLIYWASTRESGVPDRFTGSGSGTDFTLTISSVQAEDLAIYYCQNDYTYPLTFGTGTKLELK"
observed = 2.76


Next, consider the following binder.
q: // EC50 lookup, key: hVH4-hVL1-10 (antibody, V domains shown) VH: EVQLVESGGGLIQPGGSLRLSCATSGFTLSDYYMSWVRQPPGKGLEWVSFMRNKANGYTTEYSASVRGRFTISRDTSKSTIYLQMNSLRAEDTAVYYCVRDRDGRPFAYWGQGTLVTVSS VL: DIVMTQSPDSLAVSLGERATINCKSSQSLLNSINQKNFLTWYQQKPGQPPKLLIYWASTRESGVPDRFSGSGSGTDFTLTISSLQAEDLAVYYCQNDYTYPLTFGQGTKLEIK
a: 1.9
